- Target entity: farnesyl protein transferase (FPT), H-ras (Homo sapiens, UniProt P49354+P49356)
- Assay comment: FPT IC50 (H-ras), inhibition of farnesyl protein transferase, in vitro enzyme assay
- Assay type: biochemical
- Reported conditions: Table 4; read-out: FPT IC50
pIC50: −log10 of the molar value.
Measure: pIC50

a = CC(C)=NOCC(=O)N1CCC(CC(=O)N2CCC([C@H]3c4ncc(Br)cc4CCc4cc(Cl)cc(Br)c43)CC2)CC1
b = O=C(CO/N=C/c1cc[n+]([O-])cc1)N1CCC(CC(=O)N2CCC([C@H]3c4ncc(Br)cc4CCc4cc(Cl)cc(Br)c43)CC2)CC1
c = COC(=O)Cc1cn(CC(=O)N2CCC(CC(=O)N3CCC([C@H]4c5ncc(Br)cc5CCc5cc(Cl)cc(Br)c54)CC3)CC2)cn1
Arrange items by their pIC50 values in increasing order. Reply: labels, ordered per the request.
a, c, b

1 = O=C(CC1CCN(C(=O)CC2COCCO2)CC1)N1CCC([C@H]2c3ncc(Br)cc3CCc3cc(Cl)cc(Br)c32)CC1 (stereo partly drawn)
2 = Cc1cn(CC(=O)N2CCC(CC(=O)N3CCC([C@H]4c5ncc(Br)cc5CCc5cc(Cl)cc(Br)c54)CC3)CC2)cn1
Which gives the smaller pIC50 number: 1 or 2 ? Give the label under which the chosen entry appears.
1
(1: 8.41, 2: 8.80)

* * *

- Tested on: COS Cell
- Assay comment: COS Cell IC50 (Cell-Based Assay)
- Reported conditions: COS, Table 5; read-out: Cos Cell IC50
Measure: IC50 (µM)
Give just the numeric value; µM need not be written.

Answered examples (5):
COC(NC(=O)CC(=O)N1CCC(CC(=O)N2CCC([C@H]3c4ncc(Br)cc4CCc4cc(Cl)cc(Br)c43)CC2)CC1)C(C)C (stereo partly drawn): 0.28
O=C(CC1CCN(C(=O)CC2CCCCO2)CC1)N1CCC([C@H]2c3ncc(Br)cc3CCc3cc(Cl)cc(Br)c32)CC1 (stereo partly drawn): 0.011
O=C(O)NC(=O)C(=O)N1CCC(CC(=O)N2CCC([C@H]3c4ncc(Br)cc4CCc4cc(Cl)cc(Br)c43)CC2)CC1: 0.05
COC(=O)C(=O)N1CCC(CC(=O)N2CCC([C@H]3c4ncc(Br)cc4CCc4cc(Cl)cc(Br)c43)CC2)CC1: 0.04
O=C(CO/N=C/c1ccccc1O)N1CCC(CC(=O)N2CCC([C@H]3c4ncc(Br)cc4CCc4cc(Cl)cc(Br)c43)CC2)CC1: 0.011

Turning now to a further compound:
Quick check: IC50 of O=C(CC1CCOCC1)N1CCC(CC(=O)N2CCC([C@H]3c4ncc(Br)cc4CCc4cc(Cl)cc(Br)c43)CC2)CC1 ?
0.014

* * *

- Target entity: farnesyl protein transferase (FPT), K-ras (Homo sapiens, UniProt P49354+P49356)
- Assay comment: FPT IC50 (K-ras), inhibition of farnesyl protein transferase, in vitro enzyme assay
- Procedure: FPT IC50 (inhibition of farnesyl protein transferase, in vitro enzyme assay) and COS Cell IC50 (Cell-Based Assay) were determined following the assay procedures described in WO 95/10516, published Apr. 20, 1995. GGPT IC50 (inhibition of geranylgeranyl protein transferase, in vitro enzyme assay), Cell Mat Assay, and anti-tumor activity (in vivo anti-tumor studies) could be determined by the assay procedures described in WO 95/10516. […]
pIC50: −log10 of the molar value.
Measure: pIC50

Answered examples (5):
CC(C)(C)OC(=O)N1CCC[C@H]1C(=O)N1CCC(CC(=O)N2CCC([C@H]3c4ncc(Br)cc4CCc4cc(Cl)cc(Br)c43)CC2)CC1: 7.46
C[C@H](NC(=O)OC(C)(C)C)C(=O)N1CCC(CC(=O)N2CCC([C@H]3c4ncc(Br)cc4CCc4cc(Cl)cc(Br)c43)CC2)CC1: 7.52
C[C@@H](NC(=O)OC(C)(C)C)C(=O)N1CCC(CC(=O)N2CCC([C@H]3c4ncc(Br)cc4CCc4cc(Cl)cc(Br)c43)CC2)CC1: 7.66
O=C(CC1CCN(C(=O)Cn2cnc3ccccc32)CC1)N1CCC([C@H]2c3ncc(Br)cc3CCc3cc(Cl)cc(Br)c32)CC1: 7.57
CN(C)CCC(=O)N1CCC(CC(=O)N2CCC(C3c4ncc(Br)cc4CCc4cc(Cl)cc(Br)c43)CC2)CC1 (single isomer, unassigned; (+)): 7.70

a = CC(C)(C)OC(=O)NCC(=O)N1CCC(CC(=O)N2CCC([C@H]3c4ncc(Br)cc4CCc4cc(Cl)cc(Br)c43)CC2)CC1
b = O=C(CCN1CCCCC1)N1CCC(CC(=O)N2CCC([C@H]3c4ncc(Br)cc4CCc4cc(Cl)cc(Br)c43)CC2)CC1
Which gives the smaller pIC50 number: a or b ? Give the label under which the chosen entry appears.
a
(a: 7.36, b: 7.81)

* * *

- System: Human tumor cells
- Assay comment: Soft Agar Assay (anchorage-independent growth)
- Format: cell-based
- Reported conditions: Homo sapiens, read-out: Soft Agar IC50, Table 5
In this section, each of the compounds is paired with its reported IC50.
Give just the numeric value; µM need not be written.

O=C(O)CCCCC(=O)N1CCC(CC(=O)N2CCC([C@H]3c4ncc(Br)cc4CCc4cc(Cl)cc(Br)c43)CC2)CC1: 0.48

Turning now to a further compound:
Quick check: IC50 of O=C(O)CCCCCC(=O)N1CCC(CC(=O)N2CCC([C@H]3c4ncc(Br)cc4CCc4cc(Cl)cc(Br)c43)CC2)CC1 ?
0.25

* * *

- Tested on: COS Cell
- Assay comment: COS Cell IC50 (Cell-Based Assay)
- Reported conditions: COS, Table 5; read-out: Cos Cell IC50
In this section, each of the molecules is paired with its reported IC50.
Give just the numeric value; nM need not be written.

O=C1NC(=O)C(CC(=O)N2CCC(CC(=O)N3CCC([C@H]4c5ncc(Br)cc5CCc5cc(Cl)cc(Br)c54)CC3)CC2)N1 (some centres unmarked): 14
NC(=O)CCC(=O)N1CCC(CC(=O)N2CCC([C@H]3c4ncc(Br)cc4CCc4cc(Cl)cc(Br)c43)CC2)CC1: 25
NC(=O)CC(O)CC(=O)N1CCC(CC(=O)N2CCC([C@H]3c4ncc(Br)cc4CCc4cc(Cl)cc(Br)c43)CC2)CC1 (some centres unmarked): 15

Turning now to a further molecule:
Quick check: IC50 of CC(C)=NOCC(=O)N1CCC(CC(=O)N2CCC([C@H]3c4ncc(Br)cc4CCc4cc(Cl)cc(Br)c43)CC2)CC1 ?
25

* * *

- Target entity: farnesyl protein transferase (FPT), H-ras (Homo sapiens, UniProt P49354+P49356)
- Assay comment: FPT IC50 (H-ras), inhibition of farnesyl protein transferase, in vitro enzyme assay
- Format: biochemical
- Reported conditions: H-ras; read-out: FPT IC50 (H-ras)
pIC50: −log10 of the molar value.
Measure: pIC50

Answered examples (4):
C[C@@H](N)C(=O)N1CCC(CC(=O)N2CCC([C@H]3c4ncc(Br)cc4CCc4cc(Cl)cc(Br)c43)CC2)CC1: 8.09
COC(=O)C(=O)N1CCC(CC(=O)N2CCC([C@H]3c4ncc(Br)cc4CCc4cc(Cl)cc(Br)c43)CC2)CC1: 8.34
O=C(CC1CCN(C(=O)CN2C(=O)CSC2=O)CC1)N1CCC([C@H]2c3ncc(Br)cc3CCc3cc(Cl)cc(Br)c32)CC1: 8.36
NC(=O)CCCCC(=O)N1CCC(CC(=O)N2CCC([C@H]3c4ncc(Br)cc4CCc4cc(Cl)cc(Br)c43)CC2)CC1: 8.46

I = C[C@H](N)C(=O)N1CCC(CC(=O)N2CCC([C@H]3c4ncc(Br)cc4CCc4cc(Cl)cc(Br)c43)CC2)CC1
II = CC(C)=NOCCC(=O)N1CCC(CC(=O)N2CCC([C@H]3c4ncc(Br)cc4CCc4cc(Cl)cc(Br)c43)CC2)CC1
Which gives the smaller pIC50 number: I or II ? Give the label under which the chosen entry appears.
I

* * *

- Target entity: farnesyl protein transferase (FPT), H-ras (Homo sapiens, UniProt P49354+P49356)
- Assay comment: FPT IC50 (H-ras), inhibition of farnesyl protein transferase, in vitro enzyme assay
- Assay type: biochemical
- Reported conditions: Table 4; read-out: FPT IC50
Measure: IC50 (nM)

CC(=O)C(=O)N1CCC(CC(=O)N2CCC([C@H]3c4ncc(Br)cc4CCc4cc(Cl)cc(Br)c43)CC2)CC1 [Cmpd 72.0-B]: 5.4

a = O=C(CC1CCN(C(=O)C2CC(O)CN2)CC1)N1CCC([C@H]2c3ncc(Br)cc3CCc3cc(Cl)cc(Br)c32)CC1 (stereo partly drawn) [Cmpd 63.0-B]
b = CCOC(=O)CC(CC(=O)N1CCC(CC(=O)N2CCC(C3c4ncc(Br)cc4CCc4cc(Cl)cc(Br)c43)CC2)CC1)OC(C)=O (stereo not drawn) [Example 16.0-B]
Which gives the smaller IC50 number: a or b ? Give the label under which the chosen entry appears.
a
(a: 3.5 nM, b: 5.3 nM)
